- Test system: L1210
- TEST DETAILS: Tested for the T/C (survival time treated /survival time control x 100) after intraperitoneal administration of 5 mg/kg in 10 E 5 L1210 cells on day 0
- Type: functional, Mus musculus
MEASUREMENT NAME: T/C (%)

>>> print(df.to_string())
                                   compound  val
0          CCNCCCNCCCCCCCCNCCCN.Cl.Cl.Cl.Cl  145
1          CNCCCNCCCCCCCCNCCCNC.Cl.Cl.Cl.Cl  206
2        CCNCCCNCCCCCCCCNCCCNCC.Cl.Cl.Cl.Cl  135
3            Cl.Cl.Cl.Cl.NCCCNCCCCCCCCNCCCN  350
4  CC(N)CCNCCCCCCCCNCCC(C)N.Cl.Cl.Cl.Cl (stereo not given)  206

Source of measurements: ChEMBL document CHEMBL1124761
